Reference for the values: paper PMC7305236

# TESTED_TARGET: U87 ACKR3 (Homo sapiens, UniProt P25106)
# Construct: expressed in transfected cells
# Sequence (P25106 whole entry): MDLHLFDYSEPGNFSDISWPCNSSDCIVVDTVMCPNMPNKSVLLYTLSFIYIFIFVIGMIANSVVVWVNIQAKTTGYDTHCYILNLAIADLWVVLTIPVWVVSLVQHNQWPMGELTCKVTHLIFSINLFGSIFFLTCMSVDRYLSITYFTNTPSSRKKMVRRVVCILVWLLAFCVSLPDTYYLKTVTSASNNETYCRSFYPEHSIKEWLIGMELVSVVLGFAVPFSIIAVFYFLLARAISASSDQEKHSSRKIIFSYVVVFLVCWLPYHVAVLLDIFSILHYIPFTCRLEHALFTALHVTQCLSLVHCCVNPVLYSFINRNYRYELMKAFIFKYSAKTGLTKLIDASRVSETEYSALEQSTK
# MEASUREMENT_PROTOCOL: Figure 6c source data, U87 ACKR3
# Assay type: cell-based
# STATED_CONDITIONS: Figure 6c inset, U87 ACKR3 + labelled peptide, titrated agonist not given, replicate 2
MEASUREMENT_LABEL: EC50 (nM)
Give your result in nM as a bare value.

Input: Find EC50 (U87 ACKR3 (Homo sapiens, UniProt P25106)) for the entry H-MRRKFGGF-NH2 [LIH inverse]
Output: 119

###

# TESTED_TARGET: CCR6 (Homo sapiens, UniProt P51684)
# Construct: expressed in transfected cells
# Sequence (P51684 1-374): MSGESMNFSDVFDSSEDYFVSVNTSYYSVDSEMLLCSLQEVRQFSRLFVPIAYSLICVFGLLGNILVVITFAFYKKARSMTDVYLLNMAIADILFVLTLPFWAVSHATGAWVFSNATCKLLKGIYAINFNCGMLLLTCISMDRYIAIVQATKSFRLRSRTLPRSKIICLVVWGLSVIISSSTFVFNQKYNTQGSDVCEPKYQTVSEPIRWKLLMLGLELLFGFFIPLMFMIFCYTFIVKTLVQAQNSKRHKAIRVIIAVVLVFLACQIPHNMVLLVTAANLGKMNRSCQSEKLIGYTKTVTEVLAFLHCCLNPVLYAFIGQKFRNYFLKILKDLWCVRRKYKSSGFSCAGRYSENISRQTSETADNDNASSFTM
# MEASUREMENT_PROTOCOL: Figure S2a opioid peptide screen on chemokine receptors
# Type: cell-based
# Set-up: dose or concentration left out as unconfirmed
# STATED_CONDITIONS: replicate 1, read-out: CCR6 activity, ctrl+ = 100
Reported values of activation for individual entries
Give your result in % as a bare value.

Consider the reported activation for these compounds:
COMPOUND: CSCC[C@H](NC(=O)[C@H](Cc1ccccc1)NC(=O)CNC(=O)CNC(=O)[C@@H](N)Cc1ccc(O)cc1)C(=O)N[C@@H](CCCNC(=N)N)C(=O)N[C@@H](CCCNC(=N)N)C(=O)N[C@H](C(N)=O)C(C)C [Adrenorphin]
activation (%): -3.87

COMPOUND: CC[C@H](C)[C@H](NC(=O)[C@H](CCCNC(=N)N)NC(=O)[C@H](CCCNC(=N)N)NC(=O)[C@H](CC(C)C)NC(=O)[C@H](Cc1ccccc1)NC(=O)CNC(=O)CNC(=O)[C@@H](N)Cc1ccc(O)cc1)C(=O)N[C@@H](CCCNC(=N)N)C(=O)N1CCC[C@H]1C(=O)N[C@@H](CCCCN)C(=O)N[C@@H](CC(C)C)C(=O)N[C@@H](CCCCN)C(=O)O [Dynorphin 1-13]
activation (%): -0.31

Let us move to another entry and its activation.
Input: Recorded activation for C[C@H](NC(=O)CNC(=O)[C@@H](NC(=O)[C@H](Cc1ccccc1)NC(=O)CNC(=O)CNC(=O)[C@@H](N)Cc1ccccc1)[C@@H](C)O)C(=O)N[C@@H](CCCNC(=N)N)C(=O)N[C@@H](CCCCN)C(=O)N[C@@H](CO)C(=O)N[C@@H](C)C(=O)N[C@@H](CCCNC(=N)N)C(=O)N[C@@H](CCCCN)C(N)=O [Nociceptin 1-13] , please?
Output: 0.552
